METHOD SUMMARY: Single-dose pharmacokinetics in nude mice
Type: in vivo
MEASUREMENT PARAMETERS: female, BomTac:NMRI-Foxn1^nu, mouse, plasma; single oral dose 50 mg/kg
ENDPOINT: bioavailability (%)
Form entry: value (%) — number only.

Fill in the blank: the reported bioavailability of "COc1cc(C(=O)NC2CCN(C)CC2)c(F)cc1Nc1ncc(C(F)(F)F)c(Oc2cccc3c2C(=O)N(C)C3)n1" is ____.
90

###

METHOD SUMMARY: Single-dose pharmacokinetics in nude mice
Type: in vivo
MEASUREMENT PARAMETERS: BomTac:NMRI-Foxn1^nu, mouse, plasma; single intravenous dose 5 mg/kg, female nude mice; read-out: volume of distribution
ENDPOINT: Vd (L/kg)
Form entry: value (L/kg) — number only.

Fill in the blank: the reported Vd of COc1cc(C(=O)NC2CCN(C)CC2)c(F)cc1Nc1ncc(C(F)(F)F)c(Oc2cccc3c2C(=O)N(C)C3)n1 [BI 853520] is ____.
6.6

###

Test system: Calu-6 lung adenocarcinoma cells
METHOD SUMMARY: Cancer cell line panel, 2D proliferation (Eurofins Panlabs)
Type: cell-based, human
MEASUREMENT PARAMETERS: Homo sapiens; Calu-6, 2D culture, 72 h
ENDPOINT: EC50 (nM)
Form entry: value (nM) — number only.

Fill in the blank: the reported EC50 of "COc1cc(C(=O)NC2CCN(C)CC2)c(F)cc1Nc1ncc(C(F)(F)F)c(Oc2cccc3c2C(=O)N(C)C3)n1" is ____.
3
